Kindly supply the reported pKi values for the records listed here.
subject-of-test: HIV-1 protease (Human immunodeficiency virus type 1 group M subtype B, UniProt P04585)
experiment: biochemical
reported-conditions: Table I; read-out: HIV Protease FITC Assay Ki
Answers are plain numbers, as −log10 of the molar value.

Look over these answered cases.
CC[C@H](Cc1ccccc1)c1cc(O)c(C(c2cccc(NS(=O)(=O)c3nc4ccccc4[nH]3)c2)C2CC2)c(=O)o1 (stereo partly drawn) = 9.16
CCCC1(CCC)CC(O)=C(C(c2cccc(NS(=O)(=O)c3ccc(F)cc3)c2)C2CC2)C(=O)O1 (stereo not drawn) = 8.58
CCCC1(CCC)CC(O)=C(C(CC)c2cccc(NS(=O)(=O)c3ccc(F)cc3)c2)C(=O)O1 (stereo not drawn) = 8.32
CCCC1(CCC)CC(O)=C(C(c2cccc(NS(=O)(=O)c3cccc4cccnc34)c2)C2CC2)C(=O)O1 (stereo not drawn) = 9.02
COCCOCCOCCOc1ccc2c(O)c(C(c3cccc(NS(=O)(=O)c4cccc5cccnc45)c3)C3CC3)c(=O)oc2c1 (stereo not drawn) = 8.73

Return reported pKi values for all items listed beneath this line.
1. O=C(O)c1ccc(S(=O)(=O)Cc2cccc(C(c3c(O)c4c(oc3=O)CCCCCC4)C3CC3)c2)cc1 (stereo not drawn)
2. CCCC1(CCC)CC(O)=C(C(c2cccc(NS(=O)(=O)c3cn(C)cn3)c2)C2CC2)C(=O)O1 (single isomer, unassigned) [Example 56]
3. CCC(CC1CCCOC1)c1cc(O)c(C(c2cccc(NS(=O)(=O)c3cn(C)cn3)c2)C2CC2)c(=O)o1 (stereo not drawn) [Example 145B]

**Result**
[8.16, 9.64, 8.91]

**Query** Which pKi is listed for CC(C)CC(c1cccc(NS(=O)(=O)c2cn(C)cn2)c1)c1c(O)c2c(oc1=O)CCCCCC2 (single isomer, unassigned) [Example 9] ?
**Result** 9.38
